# credit: ChEMBL document CHEMBL5543137

# protocolText: Tmax in Sprague-Dawley rat serum at 0.04 mg/kg, sc administered as single dose measured upto 10 days by LC-MS/MS method
# Assay type: ADME, organism-based
# recordedConditions: time < 10 day
Starred links: 1 amine or outer side, 2 acyl side, 3 side chain; linkers in the order of their positions; H or OH if unused. Non-standard residues stand in square brackets, D forms with d. Residues, ends and D or L forms follow the SMILES beside them. *: point of attachment. C20 diacid = O=C(O)CCCCCCCCCCCCCCCCCCC(=O)*; γGlu = O=C(O)[C@H](CCC(=O)[*:2])N[*:1]; Iva = CC[C@](C)(N)C(=O)O; PEG2 = NCCOCCOCCC(=O)O
measure: Tmax

compound | measure | result
CC[C@](C)(NC(=O)[C@@H](NC(=O)CCOCCOCCNC(=O)CCOCCOCCNC(=O)CC[C@H](NC(=O)CCCCCCCCCCCCCCCCCCC(=O)O)C(=O)O)C(C)C)C(=O)NCC(=O)N[C@@H](CO)C(=O)N1CCC[C@H]1C(=O)N[C@@H](CO)C(=O)N[C@@H](C)C(=O)N[C@@H](CCC(N)=O)C(=O)N[C@@H](CCC(=O)O)C(=O)N[C@@H](CCC(=O)O)C(=O)N[C@@H](C)C(=O)N[C@@H](CO)C(=O)N1CCC[C@H]1C(=O)N[C@@H](C)C(N)=O ({C20 diacid-γGlu-PEG2-PEG2}-V[Iva]GSPSAQEEASPA-NH2) | Tmax | 24 h

----------
# protocolText: Half-life in Sprague-Dawley rat serum at 0.12 mg/kg, sc administered as single dose measured upto 10 days by LC-MS/MS method
# Type: ADME, organism-based
# recordedConditions: time < 10 day
Starred links: 1 amine or outer side, 2 acyl side, 3 side chain; linkers in the order of their positions; H or OH if unused. Non-standard residues stand in square brackets, D forms with d. Residues, ends and D or L forms follow the SMILES beside them. *: point of attachment. C20 diacid = O=C(O)CCCCCCCCCCCCCCCCCCC(=O)*; γGlu = O=C(O)[C@H](CCC(=O)[*:2])N[*:1]; Iva = CC[C@](C)(N)C(=O)O; PEG2 = NCCOCCOCCC(=O)O

molecule | scaleUnit | half-life
CC[C@](C)(NC(=O)[C@@H](NC(=O)CCOCCOCCNC(=O)CCOCCOCCNC(=O)CC[C@H](NC(=O)CCCCCCCCCCCCCCCCCCC(=O)O)C(=O)O)C(C)C)C(=O)NCC(=O)N[C@@H](CO)C(=O)N1CCC[C@H]1C(=O)N[C@@H](CO)C(=O)N[C@@H](C)C(=O)N[C@@H](CCC(N)=O)C(=O)N[C@@H](CCC(=O)O)C(=O)N[C@@H](CCC(=O)O)C(=O)N[C@@H](C)C(=O)N[C@@H](CO)C(=O)N1CCC[C@H]1C(=O)N[C@@H](C)C(N)=O ({C20 diacid-γGlu-PEG2-PEG2}-V[Iva]GSPSAQEEASPA-NH2) | h | 33

----------
# protocolText: Tmax in Sprague-Dawley rat serum at 600 ug/kg, sc administered as single dose measured upto 10 days by LC-MS/MS method
# Type: ADME, organism-based
# recordedConditions: 0.6 mg/kg, dose 600 µg/kg, time < 10 day

substance | scaleUnit | Tmax
H-VVGSPSAQDEASPL-NH2 | min | 4.98
